Tested on: gel-filtered platelets
Procedure text: In vitro inhibition of thrombin-induced gel-filtered platelet aggregation
Assay type: cell-based
Measurement parameters: Platelet; human gel-filtered platelets; agonist thrombin 50 μL of 1 unit/mL; read-out: Thrmb IC50 (Thrombin-induced aggregation of gel-filtered platelets)
What pIC50 was measured for each of the following?
Numbers only, as −log10 of the molar value.

Compound	pIC50
CSCC[C@H](NC(=O)[C@H](Cc1ccc(F)c(F)c1)NC(=O)Nc1ccc2c(CN3CCCC3)cn(Cc3c(Cl)cccc3Cl)c2c1)C(=O)NCCN [Compound 143]	6.54

// for each compound in input: emit pIC50
1. NCC[C@H](NC(=O)[C@H](Cc1cscn1)NC(=O)Nc1ccc2c(CN3CCCC3)cn(Cc3c(Cl)cccc3Cl)c2c1)C(=O)NCc1ccccc1 [Compound 132]
2. N=C(N)NCCC[C@H](NC(=O)[C@H](Cc1ccc(F)c(F)c1)NC(=O)Nc1ccc2c(CN3CCCC3)cn(Cc3c(Cl)cccc3Cl)c2c1)C(=O)NCc1ccc(F)cc1 [Compound 59]
3. NCCC[C@H](NC(=O)[C@H](Cc1ccc(F)c(F)c1)NC(=O)Nc1ccc2c(CN3CCCC3)cn(Cc3c(Cl)cccc3Cl)c2c1)C(=O)NCc1ccccc1 [Compound 66]

A:
[4.66, 6.06, 6.62]

// for each compound in input: emit pIC50
1. CC(=N)NCCNC(=O)[C@H](Cc1ccncc1)NC(=O)[C@H](Cc1ccc(Cl)cc1)NC(=O)Nc1ccc2c(CN3CCCC3)cn(Cc3c(Cl)cccc3Cl)c2c1 [Compound 139]
2. COc1ccc(C[C@H](NC(=O)Nc2ccc3c(CN4CCCC4)cn(Cc4ccccc4C)c3c2)C(=O)N[C@@H](CCCNC(=N)N)C(=O)NCc2ccccc2)cc1 [Compound 17]
3. NCCNC(=O)[C@H](Cc1cccs1)NC(=O)[C@H](Cc1ccc(Cl)cc1)NC(=O)Nc1ccc2c(CN3CCCC3)cn(Cc3c(Cl)cccc3Cl)c2c1 [Compound 136]
4. N=C(N)NCCC[C@H](NC(=O)[C@H](Cc1cccc(F)c1)NC(=O)Nc1ccc2c(CN3CCCC3)cn(Cc3c(Cl)cccc3Cl)c2c1)C(=O)NCc1ccc(S(N)(=O)=O)cc1 [Compound 92]
5. CC(=N)NCCC[C@H](NC(=O)[C@H](Cc1ccc(F)c(F)c1)NC(=O)Nc1ccc2c(CN3CCCC3)cn(Cc3c(Cl)cccc3Cl)c2c1)C(=O)NCc1ccccc1 [Compound 95]
6. NC(N)=NCCC[C@H](NC(=O)[C@H](Cc1ccc(F)c(F)c1)NC(=O)Nc1ccc2c(CN3CCCC3)cn(Cc3ccc(F)cc3)c2c1)C(=O)NCc1ccco1 [Compound 82]
7. N=C(N)NCCC[C@H](NC(=O)Nc1ccc2c(CN3CCCC3)cn(Cc3c(Cl)cccc3Cl)c2c1)C(=O)N[C@@H](Cc1ccc(F)c(F)c1)C(=O)NCc1ccccc1 [Compound 80]

A:
6.48
6.38
6.26
5.89
6.39
5.82
4.95

Where these numbers come from: patent US7183252B2
